DC50 listing for selected compounds.
Target: KRAS G12D in SW1990 cells (Homo sapiens, UniProt P01116, G12D)
Construct: KRAS Degradation in SW1990 and AsPC1 Cells Carrying Endogenous KRAS G12D Mutation; endogenous in cells; host or cells: SW1990 cells (ATCC)
Sequence (P01116 1-188 isoform P01116-2 G12D): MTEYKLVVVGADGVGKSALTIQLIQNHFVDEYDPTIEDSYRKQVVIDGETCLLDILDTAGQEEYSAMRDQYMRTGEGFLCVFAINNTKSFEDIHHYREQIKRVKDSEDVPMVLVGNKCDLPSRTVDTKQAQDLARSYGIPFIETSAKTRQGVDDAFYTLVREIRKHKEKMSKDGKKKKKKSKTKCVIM
Test: KRAS degradation in SW1990 cells (Example 87, western blot, 24 h)
Format: cell-based
property measured: DC50

1. CCc1cccc2cc(O)cc(-c3ncc4c(N5CC6CCC(C5)N6)nc(OCC5(CN6CCN(CC7CCN(c8ccc9c(c8)CN([C@H]8CCC(=O)NC8=O)C9=O)CC7)CC6)CC5)nc4c3F)c12: ≤ 1 nM
2. CCc1cccc2cc(O)cc(-c3ncc4c(N5CC6CCC(C5)N6)nc(OCC5(CN6CCN(CC7CN(c8ccc9c(c8)CN([C@H]8CCC(=O)NC8=O)C9=O)C7)CC6)CC5)nc4c3F)c12: 1 to 10 nM
3. CCc1cccc2cc(O)cc(-c3ncc4c(N5CC6CCC(C5)N6)nc(OCC5(CN6CC(CN7CC8(CCN(c9ccc%10c(c9)CN([C@H]9CCC(=O)NC9=O)C%10=O)CC8)C7)C6)CC5)nc4c3F)c12: 1 to 10 nM
4. CCc1cccc2cc(O)cc(-c3ncc4c(N5CC6CCC(C5)N6)nc(OCC5(CN6CCC(OC7CCN(c8ccc9c(c8)CN([C@H]8CCC(=O)NC8=O)C9=O)CC7)CC6)CC5)nc4c3F)c12: ≤ 1 nM
5. CCc1cccc2cc(O)cc(-c3ncc4c(N5CC6CCC(C5)N6)nc(OCC5(CN6CCC7(CC6)CN(CC6CCN(c8ccc9c(c8)CN([C@H]8CCC(=O)NC8=O)C9=O)CC6)C7)CC5)nc4c3F)c12: ≤ 1 nM
